Experiment: Caspase-3/7 induction in HepG2 cells by small molecules, qHTS cell viability counter screen (AID 1346981); note: nearly all actives have a fitted effect of over 30% in size
Conditions: CellTiter-Fluor fluorescence, 17 h; series mostly up to 92.4 µM
Records with an inconclusive call do not appear. Calls of active or inactive are those of the source. Calls come from the whole dose curve; as a rule, active = well fitted cell-killing curve with a large enough effect in the repeat runs; inconclusive = weak or mixed curves, or effect the other way; inactive = flat fitted curve, though single readings scatter.
Outcome codes: YES for active, NO for inactive

structure_string=Cc1cc(O)c(Cl)c(C)c1Cl assigned_category=NO
structure_string=Cn1cc(C(=O)[C@@H]2CCc3nc[nH]c3C2)c2ccccc21 assigned_category=NO
structure_string=CC(C)(C)CC(C)(C)c1ccc(O)c(Cc2ccc(Cl)cc2Cl)c1 assigned_category=YES
structure_string=CC(C)(C)c1ccc(C(=O)CCCN2CCC(OC(c3ccccc3)c3ccccc3)CC2)cc1 assigned_category=YES
structure_string=CCCCCCCCCOC(=O)c1ccc(O)cc1 assigned_category=YES
structure_string=N=C1C=CC(=C(c2ccc(N)cc2)c2ccc(N)cc2)C=C1 assigned_category=YES

---

Experiment: qHTS assay to identify small molecule antagonists of the androgen receptor (AR) signaling pathway using the MDA cell line - cell viability counter screen (AID 743041; note: nearly all actives have a fitted effect of over 45% in size)
Conditions: MDA-kb2 viability, CellTiter-Fluor, 16 h, cells co-treated with R1881 androgen agonist; series mostly up to 70.3 µM
Inconclusive results are not listed. Active and inactive are the calls of the source. Calls come from the whole dose curve; as a rule, active = well fitted cell-killing curve with a large enough effect in the repeat runs; inconclusive = weak or mixed curves, or effect the other way; inactive = flat fitted curve, though single readings scatter.
Outcome codes: active, inactive

molecule=Clc1ccc2nsnc2c1NC1=NCCN1 assigned_category=inactive
molecule=COc1cc(-c2ccc(N=C=O)c(OC)c2)ccc1N=C=O assigned_category=inactive
molecule=CCCCCCCCCCn1cc[n+](CCCCCCCCCC)c1C assigned_category=active
molecule=O=C(OCC(COC(=O)c1ccccc1)(COC(=O)c1ccccc1)COC(=O)c1ccccc1)c1ccccc1 assigned_category=inactive
molecule=CCCN(CCC)c1c([N+](=O)[O-])cc(C(F)(F)F)c(N)c1[N+](=O)[O-] assigned_category=active
molecule=Fc1ccc([C@@H]2CCNC[C@H]2COc2ccc3c(c2)OCO3)cc1 assigned_category=active
molecule=CN(C)c1ccc(SC#N)cc1 assigned_category=inactive
molecule=C[C@@H]1C[C@H]2[C@@H]3CCC4=CC(=O)C=C[C@]4(C)[C@@]3(Cl)[C@@H](O)C[C@]2(C)[C@@]1(OC(=O)c1ccco1)C(=O)CCl assigned_category=inactive
molecule="CCCC(C)c1ccccc1O (stereo not drawn)" assigned_category=inactive
molecule=O=C1C=CC(=O)N1c1ccc(Cc2ccc(N3C(=O)C=CC3=O)cc2)cc1 assigned_category=active
molecule=Cc1ccc2oc(CN(Cc3ccccc3)C(=O)Nc3c(F)cc(F)cc3F)c(-c3ccc(Cl)cc3)c2c1 assigned_category=inactive
molecule=CCCCN(CCCC)c1ccc(C(=O)c2ccccc2C(=O)O)c(O)c1 assigned_category=inactive
molecule=CNC(=O)c1ccccc1 assigned_category=inactive
molecule=CCCCCCCCCCCCCCCS(=O)(=O)Oc1ccccc1 assigned_category=inactive
molecule=Nc1ccccc1O assigned_category=active
molecule=CN(C)[C@@H]1C(=O)C(C(N)=O)=C(O)[C@@]2(O)C(=O)C3=C(O)c4c(O)ccc(Cl)c4[C@@H](O)[C@H]3C[C@@H]12 assigned_category=inactive
molecule="Cc1cccc(CN2CCN(C(c3ccccc3)c3ccc(Cl)cc3)CC2)c1 (stereo not drawn)" assigned_category=inactive
molecule=CN1CCN(CCC(=O)N2c3ccccc3Sc3ccc(C(F)(F)F)cc32)CC1 assigned_category=inactive
molecule=O=C(Nc1ccc(Oc2ccc(Cl)cc2)c(Cl)c1)c1cc(I)cc(I)c1O assigned_category=inactive
molecule=S=c1[nH]c2ccccc2s1 assigned_category=inactive
molecule=CCOC(=O)O[C@]1(C(=O)OCCl)CC[C@H]2[C@@H]3CCC4=CC(=O)C=C[C@]4(C)[C@H]3[C@@H](O)C[C@@]21C assigned_category=inactive
molecule=CC(C)(C)C(=O)OCOC(=O)[C@@H]1N2C(=O)[C@@H](NC(=O)[C@H](N)c3ccccc3)[C@H]2SC1(C)C assigned_category=inactive
molecule="Cc1nc(-c2ccc3c(c2)CCN(CCC2CCC(NC(=O)/C=C/c4ccc(F)cc4)CC2)CC3)no1 (stereo not drawn)" assigned_category=inactive
molecule=CCCCCCCCCCCCCCCC[N+](C)(C)CCN(Cc1ccc(OC)cc1)c1ncccn1 assigned_category=inactive
molecule=CCC1=C[C@@H]2CN(C1)Cc1c([nH]c3ccccc13)[C@@](C(=O)OC)(c1cc3c(cc1OC)N(C)[C@H]1[C@@](O)(C(=O)OC)[C@H](OC(C)=O)[C@]4(CC)C=CCN5CC[C@]31[C@@H]54)C2 assigned_category=inactive
molecule=CCN(C(=O)N(CC)c1ccccc1)c1ccccc1 assigned_category=inactive
molecule=Oc1ccc2cc(SSc3ccc4cc(O)ccc4c3)ccc2c1 assigned_category=inactive
molecule=CC[C@H](c1ccc(O)cc1)[C@@H](CC)c1ccc(O)cc1 assigned_category=inactive
molecule=C[n+]1ccn(Cc2ccccc2)c1 assigned_category=inactive
molecule=c1ccc(CSCc2ccccc2)cc1 assigned_category=inactive
molecule=CCc1cc(Cc2cc(CC)cc(C(C)(C)C)c2O)c(O)c(C(C)(C)C)c1 assigned_category=inactive
molecule=CCc1cc(Cc2cc(CC)c(N)c(CC)c2)cc(CC)c1N assigned_category=inactive
molecule=C/C=C1/C(=O)C[C@H]2[C@@H]3CCC4=CC(=O)CC[C@]4(C)[C@H]3CC[C@]12C assigned_category=inactive
molecule=O=c1cccccc1O assigned_category=inactive
molecule=CSc1cnc(C)cn1 assigned_category=inactive
molecule=CCCCCCCCn1sc(Cl)c(Cl)c1=O assigned_category=inactive
molecule=CCOc1ccc2nc3cc(N)ccc3c(N)c2c1 assigned_category=inactive
molecule=Cc1cccc2c1cc1ccc3cccc4ccc2c1c34 assigned_category=inactive
molecule=O=C(Oc1cccc2cccnc12)c1ccccc1 assigned_category=active
molecule=CN(C)C(=O)C1(N2CCCCC2)CCN(CC[C@@]2(c3ccc(Cl)c(Cl)c3)CN(C(=O)c3ccccc3)CCO2)CC1 assigned_category=active
molecule=CC(C)CCCCCCCCCCCCCCC(=O)O assigned_category=inactive
molecule=CCN(CC)CCNC(=O)c1c(C)[nH]c(/C=C2\C(=O)Nc3ccc(F)cc32)c1C assigned_category=inactive
molecule="Cc1c(C)c2c(c(C)c1O)CCC(C)(COc1ccc(CC3SC(=O)NC3=O)cc1)O2 (stereo not drawn)" assigned_category=inactive

meta.source: PubChem BioAssay (Tox21)
